For each of the compounds below, state its IC50.
Tested on: S6 Ribosomal Protein phosphorylation Ser235/236 in TSC1 null mouse embryo fibroblast (MEF) cells
assay_name: Reverse protein array, S6 Ribosomal Protein phosphorylation in TSC1 null MEF cells
Assay type: cell-based
condition_summary: 1 h, TSC1-/- MEFs, 60 minutes, read-out: p-S6 IC50

Worked examples, 10 compounds total:
- Cc1nc(N2CCC(O)C2)ccc1-n1c(=O)n(C)c2cnc3ccc(-c4cncc(C(C)(C)O)c4)cc3c21 (stereo not drawn): 33 nM
- CNc1ncc(-c2ccc3ncc4c(c3c2)n(-c2ccc(N3CC(O)C3)nc2C)c(=O)n4C)cc1C(F)(F)F: 1.7 nM
- Cc1nc(N(C)CCO)ccc1-n1c(=O)n(C)c2cnc3ccc(-c4cnc(N)c(C(F)(F)F)c4)cc3c21: < 0.457 nM
- CCOc1ccc(-c2ccc3ncc4c(c3c2)n(-c2cncc(C)c2)c(=O)n4C)cn1: 29 nM
- CCOc1cc(-c2ccc3ncc4c(c3c2)n(-c2cccnc2C)c(=O)n4C)cnc1COC: 14 nM
- COc1ccc(-n2c(=O)n(C)c3cnc4ccc(-c5cnc(C(OC)OC)c(OC)c5)cc4c32)c(OC)n1: 15 nM
- CNc1ncc(-c2ccc3ncc4c(c3c2)n(-c2ccc(C)nc2C)c(=O)n4C)cn1: 7 nM
- COc1ccc(-n2c(=O)n(C)c3cnc4ccc(-c5cnc(N(C)C)nc5)cc4c32)c(Cl)n1: 4.3 nM
- CCOc1ccc(-c2ccc3ncc4c(c3c2)n(-c2ccc(N(C)C)nc2C)c(=O)n4C)cn1: 2 nM
- COc1cc(-c2ccc3ncc4c(c3c2)n(-c2ccc(N3CC[C@H](O)C3)nc2C)c(=O)n4C)cnc1CO: 21.4 nM

Take each entry in turn and give its IC50.
1. CNc1ncc(-c2ccc3ncc4c(c3c2)n(-c2ccc(N3CCC(OC)C3)nc2C)c(=O)n4C)cn1 (stereo not drawn)
2. CNc1ncc(-c2ccc3ncc4c(c3c2)n(-c2cnc(F)cc2C)c(=O)n4C)cn1
3. CNc1ncc(-c2ccc3ncc4c(c3c2)n(-c2ccc(N3CC(O)C3)nc2C)c(=O)n4C)cc1F
4. COc1ncc(-c2ccc3ncc4c(c3c2)n(-c2ccc(N3CC(O)C3)nc2C)c(=O)n4C)c(OC)n1
5. COCCN(C)c1ccc(-n2c(=O)n(C)c3cnc4ccc(-c5cnc(N(C)C)nc5)cc4c32)c(C)n1
6. CCNc1cc(-c2ccc3ncc4c(c3c2)n(-c2ccc(N3CCC3)nc2C)c(=O)n4C)cnc1CO
7. CCNc1cc(-c2ccc3ncc4c(c3c2)n(-c2ccc(OCCOC)nc2C)c(=O)n4C)cnc1C

Result:
1 nM
22 nM
7.8 nM
5 nM
19 nM
6 nM
1 nM

---

assay_name: Parallel Artificial Membrane Permeability Assay (PAMPA) at pH 6.8
Assay type: physicochemical
For each of the compounds below, state its HT-Perm logPe pH6.8.
Numbers only.

Worked examples, 3 compounds total:
- CNc1ccc(-c2ccc3ncc4c(c3c2)n(-c2ccc(N(C)CCOC)nc2C)c(=O)n4C)cn1: −3.7
- CCNc1cc(-c2ccc3ncc4c(c3c2)n(-c2ccc(C)nc2C)c(=O)n4C)cnc1C: −4.1
- CCOc1ccc(-c2ccc3ncc4c(c3c2)n(-c2cncc(C)c2)c(=O)n4C)cn1: −4.5

Take each entry in turn and give its HT-Perm logPe pH6.8.
1. Cc1nc(C(C)(C)O)ccc1-n1c(=O)n(C)c2cnc3ccc(-c4cnc(N)c(C(F)(F)F)c4)cc3c21
2. Cc1nc(F)ccc1-n1c(=O)n(C)c2cnc3ccc(-c4cncc(N)c4)cc3c21
3. CNc1ncc(-c2ccc3ncc4c(c3c2)n(-c2ccc(C)nc2C)c(=O)n4C)cn1
4. COc1cc(-c2ccc3ncc4c(c3c2)n(-c2cccnc2C)c(=O)n4C)cnc1C(OC)OC
5. Cc1nc(N(C)CCO)ccc1-n1c(=O)n(C)c2cnc3ccc(-c4cnc(N)c(C(F)(F)F)c4)cc3c21
6. CCNc1cc(-c2ccc3ncc4c(c3c2)n(-c2ccc(N(C)CC)nc2C)c(=O)n4C)cnc1C

Result:
["−4.3", "−6", "−4.6", "−5.3", "−4.2", "−4"]

Take each entry in turn and give its HT-Perm logPe pH6.8.
1. CCNc1ncc(-c2ccc3ncc4c(c3c2)n(-c2ccc(N3CC[C@@H](O)C3)nc2C)c(=O)n4C)cc1C(F)(F)F
2. CCOCc1cc(-c2ccc3ncc4c(c3c2)n(-c2ccc(F)nc2C)c(=O)n4C)cnc1N

Result:
["−3.9", "−4"]

---

tgt: PI3K alfa (Homo sapiens, UniProt P42336)
Construct: His tag (C); made in house; host or cells: baculovirus BV1075; Tn5 (Trichoplusia ni) or TiniPro insect cells
Sequence (P42336 with tags, fused parts or gaps limits assumed): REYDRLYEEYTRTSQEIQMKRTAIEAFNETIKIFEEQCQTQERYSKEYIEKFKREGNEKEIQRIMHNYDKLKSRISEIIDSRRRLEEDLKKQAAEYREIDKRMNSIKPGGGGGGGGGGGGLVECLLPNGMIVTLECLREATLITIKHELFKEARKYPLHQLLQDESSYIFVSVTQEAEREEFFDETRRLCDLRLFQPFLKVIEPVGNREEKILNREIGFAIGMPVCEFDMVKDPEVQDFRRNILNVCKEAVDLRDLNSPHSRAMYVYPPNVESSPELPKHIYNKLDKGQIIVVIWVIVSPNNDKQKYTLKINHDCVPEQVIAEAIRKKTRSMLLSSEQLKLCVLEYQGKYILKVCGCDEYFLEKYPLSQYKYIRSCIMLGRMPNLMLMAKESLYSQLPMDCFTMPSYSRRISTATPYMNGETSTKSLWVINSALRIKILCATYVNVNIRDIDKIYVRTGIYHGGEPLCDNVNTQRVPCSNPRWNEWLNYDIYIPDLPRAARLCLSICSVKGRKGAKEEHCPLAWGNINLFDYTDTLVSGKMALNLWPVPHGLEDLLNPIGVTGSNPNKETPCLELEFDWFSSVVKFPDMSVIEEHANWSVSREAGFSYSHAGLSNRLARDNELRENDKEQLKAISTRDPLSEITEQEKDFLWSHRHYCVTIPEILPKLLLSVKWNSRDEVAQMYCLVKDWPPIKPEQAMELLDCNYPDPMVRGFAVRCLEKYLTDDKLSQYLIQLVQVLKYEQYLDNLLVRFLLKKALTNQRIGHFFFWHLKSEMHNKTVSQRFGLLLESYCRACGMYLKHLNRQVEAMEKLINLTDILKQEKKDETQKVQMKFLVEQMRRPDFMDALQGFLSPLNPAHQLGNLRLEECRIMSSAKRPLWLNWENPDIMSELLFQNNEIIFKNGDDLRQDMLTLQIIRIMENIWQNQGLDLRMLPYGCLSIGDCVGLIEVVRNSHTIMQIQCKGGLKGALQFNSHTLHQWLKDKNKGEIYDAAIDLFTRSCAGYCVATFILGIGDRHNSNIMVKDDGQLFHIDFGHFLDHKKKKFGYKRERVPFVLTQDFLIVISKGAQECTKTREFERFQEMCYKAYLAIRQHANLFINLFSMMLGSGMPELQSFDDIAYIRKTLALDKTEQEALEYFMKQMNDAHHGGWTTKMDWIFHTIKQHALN
assay_name: PI3K alpha kinase assay (Kinase-Glo luminescence)
Type: biochemical
condition_summary: read-out: EPK_PI3Kalfa/IC50
measure: pIC50
Numbers only, as −log10 of the molar value.

- CNc1ccc(-c2ccc3ncc4c(c3c2)n(-c2ccc(NC(=O)COC)nc2C)c(=O)n4C)cn1 [Example 20.4]: 7.41

Proceeding to the next molecule to report its pIC50.
Task: Name the reported pIC50 value associated with the molecule COCc1ncc(-c2ccc3ncc4c(c3c2)n(-c2ccc(OC)nc2OC)c(=O)n4C)cc1OC [Example 8.12]
Result: 7.39

---

tgt: PI3K alfa (Homo sapiens)
Construct: His tag (C); made in house; host or cells: baculovirus BV1075; Tn5 (Trichoplusia ni) or TiniPro insect cells
assay_name: PI3K alpha kinase assay (Kinase-Glo luminescence)
Assay type: biochemical
condition_summary: read-out: PI3Kalfa/IC50
measure: log10(IC50) (log10 of the value in nM)
Recorded IC50 (log10, nM)

Worked examples, 5 compounds total:
- CNc1ncc(-c2ccc3ncc4c(c3c2)n(-c2ncccc2C)c(=O)n4C)cn1: 1.90
- COc1ccc(-c2ccc3ncc4c(c3c2)n(-c2cnccc2C)c(=O)n4C)cn1: 1.86
- Cc1ncccc1-n1c(=O)n(C)c2cnc3ccc(-c4cnc(N(C)C)nc4)cc3c21: 1.54
- COc1ccc(-c2ccc3ncc4c(c3c2)n(-c2ncccc2C)c(=O)n4C)cn1: 1.95
- COc1ncccc1-n1c(=O)n(C)c2cnc3ccc(-c4cnc5[nH]ccc5c4)cc3c21: 1.18

Take each entry in turn and give its log10(IC50).
1. COc1ccc(-c2ccc3ncc4c(c3c2)n(-c2cccnc2OC)c(=O)n4C)cn1
2. Cc1cccnc1-n1c(=O)n(C)c2cnc3ccc(-c4ccc(N(C)C)nc4)cc3c21
3. CNC(=O)c1ccc(-c2ccc3ncc4c(c3c2)n(-c2cccnc2C)c(=O)n4C)cc1
4. CCOc1ccc(-c2ccc3ncc4c(c3c2)n(-c2ccc(N3CCNCC3)nc2OC)c(=O)n4C)cn1
5. Cc1cccnc1-n1c(=O)n(C)c2cnc3ccc(-c4cnc5ccccc5c4)cc3c21
6. COc1ccc(-c2ccc3ncc4c(c3c2)n(-c2cccnc2)c(=O)n4C)cc1OC

Result:
1: 1.36; 2: 2.51; 3: 1.46; 4: 1.76; 5: 1.85; 6: 1.46

---

For each of the molecules below, state its log10 solubility thermodynamic.
assay_name: High-throughput equilibrium solubility at pH 6.8
Format: physicochemical
condition_summary: pH 6.8, aqueous buffer, thermodynamic from solid; read-out: HT-Eq Sol/pH 6.8
Recorded solubility thermodynamic (log10, µg/mL)

Take each entry in turn and give its log10 solubility thermodynamic.
1. CCNc1ncc(-c2ccc3ncc4c(c3c2)n(-c2ccc(C(C)(C)O)nc2C)c(=O)n4C)cn1
2. CNc1ncc(-c2ccc3ncc4c(c3c2)n(-c2ncccc2C)c(=O)n4C)cn1
3. CCNc1cc(-c2ccc3ncc4c(c3c2)n(-c2ccc(N(C)CC)nc2C)c(=O)n4C)cnc1C
4. CCOc1ncc(-c2ccc3ncc4c(c3c2)n(-c2cccnc2C)c(=O)n4C)cn1
5. Cc1ncccc1-n1c(=O)n(C)c2cnc3ccc(-c4cnc(N(C)C)nc4)cc3c21
6. Cc1nc(N2CCCC2)ccc1-n1c(=O)n(C)c2cnc3ccc(-c4cncc(C(C)(C)O)c4)cc3c21

Result:
[1.15, 1.04, 0.70, 1.68, 1.04, 2.00]

---

tgt: PI3K alfa (Homo sapiens)
Construct: His tag (C); made in house; host or cells: baculovirus BV1075; Tn5 (Trichoplusia ni) or TiniPro insect cells
assay_name: PI3K alpha kinase assay (Kinase-Glo luminescence)
Format: biochemical
condition_summary: read-out: EPK_PI3Kalfa/IC50
Please note: IC50 exactly at 30 nM is F. Only values below 30 nM get T.

* Cc1cc(F)ncc1-n1c(=O)n(C)c2cnc3ccc(-c4cnc5c(ccn5C)c4)cc3c21 [Example 16.5] | T
* Cc1nc(F)ccc1-n1c(=O)n(C)c2cnc3ccc(-c4cncc(N)c4)cc3c21 [Example 7.16] | F
* Cc1nc(N2CC(O)C2)ccc1-n1c(=O)n(C)c2cnc3ccc(-c4cncc(C(C)(C)O)c4)cc3c21 [Example 29.1] | T
* CCNc1cc(-c2ccc3ncc4c(c3c2)n(-c2ccc(N3CC(O)C3)nc2C)c(=O)n4C)cnc1CO [Example 29.2] | T
* Cc1ccc(-n2c(=O)n(C)c3cnc4ccc(-c5cnc6c(ccn6C)c5)cc4c32)c(C)n1 [Example 14.7] | T

Task: Determine if COc1ccc(-n2c(=O)n(C)c3cnc4ccc(-c5cncc(N6CCC6)c5)cc4c32)c(OC)n1 [Example 8.11] shows IC50 strictly lower than 30 nM.
Result: F

Task: Determine if Cc1nc(C(C)(C)O)ccc1-n1c(=O)n(C)c2cnc3ccc(-c4cnc(N)c(C(F)(F)F)c4)cc3c21 [Example 31.5] shows IC50 strictly lower than 30 nM.
Result: T

Task: Determine if CCNc1ncc(-c2ccc3ncc4c(c3c2)n(-c2ccc(C(C)(C)O)nc2C)c(=O)n4C)cn1 [Example 31.7] shows IC50 strictly lower than 30 nM.
Result: F
